The reader will find reported KM (FX activation by FIXa in Xase complex with FVIIIa, PC/PS vesicles, Ca2+) values listed item by item below.
targetDesc: Factor X, P00742
Sequence (P00742 whole entry, looked up): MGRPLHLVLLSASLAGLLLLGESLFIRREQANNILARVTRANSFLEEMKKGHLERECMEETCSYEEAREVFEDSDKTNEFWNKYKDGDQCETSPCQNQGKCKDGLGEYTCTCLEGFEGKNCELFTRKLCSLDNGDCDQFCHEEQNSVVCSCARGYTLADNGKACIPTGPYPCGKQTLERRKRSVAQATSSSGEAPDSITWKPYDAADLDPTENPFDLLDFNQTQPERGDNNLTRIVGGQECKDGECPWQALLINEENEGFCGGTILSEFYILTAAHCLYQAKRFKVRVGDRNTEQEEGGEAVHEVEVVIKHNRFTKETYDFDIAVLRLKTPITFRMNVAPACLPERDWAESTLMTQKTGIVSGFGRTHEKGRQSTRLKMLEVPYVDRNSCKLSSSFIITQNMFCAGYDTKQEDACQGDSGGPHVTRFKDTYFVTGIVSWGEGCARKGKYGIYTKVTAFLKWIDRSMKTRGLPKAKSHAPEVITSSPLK
recordedEndpoint: KM (FX activation by FIXa in Xase complex with FVIIIa, PC/PS vesicles, Ca2+) (µM)

protein	measureUnit	reportedResult
FIXa R318Y/R338E/E410N/T412V (protein) chain 1: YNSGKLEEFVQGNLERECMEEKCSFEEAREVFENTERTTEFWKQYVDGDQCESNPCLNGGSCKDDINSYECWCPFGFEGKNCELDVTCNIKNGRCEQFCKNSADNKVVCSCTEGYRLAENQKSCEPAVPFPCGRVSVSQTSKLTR chain 2: VVGGEDAKPGQFPWQVVLNGKVDAFCGGSIVNEKWIVTAAHCVETGVKITVVAGEHNIEETEHTEQKRNVIRIIPHHNYNAAINKYNHDIALLELDEPLVLNSYVTPICIADKEYTNIFLKFGSGYVSGWGRVFHKGYSALVLQYLRVPLVDRATCLESTKFTIYNNMFCAGFHEGGRDSCQGDSGGPHVTEVEGTSFLTGIISWGEECAMKGKYGIYTKVSRYVNWIKNKVKLT	µM	0.0236
FIXa R318Y/R338E/T343R/E410N (protein) chain 1: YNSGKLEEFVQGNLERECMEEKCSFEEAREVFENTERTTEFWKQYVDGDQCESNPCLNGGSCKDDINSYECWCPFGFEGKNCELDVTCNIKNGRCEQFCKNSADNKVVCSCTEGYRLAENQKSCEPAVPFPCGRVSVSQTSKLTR chain 2: VVGGEDAKPGQFPWQVVLNGKVDAFCGGSIVNEKWIVTAAHCVETGVKITVVAGEHNIEETEHTEQKRNVIRIIPHHNYNAAINKYNHDIALLELDEPLVLNSYVTPICIADKEYTNIFLKFGSGYVSGWGRVFHKGYSALVLQYLRVPLVDRATCLESTKFRIYNNMFCAGFHEGGRDSCQGDSGGPHVTEVEGTSFLTGIISWGEECAMKGKYGIYTKVSRYVNWIKNKTKLT	µM	0.0164
